B1: library; numbered along this chain (parent)
chain: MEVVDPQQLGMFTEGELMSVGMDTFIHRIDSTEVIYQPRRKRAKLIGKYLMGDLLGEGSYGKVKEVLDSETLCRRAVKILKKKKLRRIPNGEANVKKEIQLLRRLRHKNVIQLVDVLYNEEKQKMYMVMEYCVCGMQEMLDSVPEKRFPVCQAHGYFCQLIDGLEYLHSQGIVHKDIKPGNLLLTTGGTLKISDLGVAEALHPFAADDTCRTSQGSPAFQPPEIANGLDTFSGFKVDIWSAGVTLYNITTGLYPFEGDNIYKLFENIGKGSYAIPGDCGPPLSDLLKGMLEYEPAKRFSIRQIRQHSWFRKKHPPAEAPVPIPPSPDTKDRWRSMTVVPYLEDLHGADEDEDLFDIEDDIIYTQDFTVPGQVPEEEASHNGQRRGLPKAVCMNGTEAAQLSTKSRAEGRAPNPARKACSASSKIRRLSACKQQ

- Variants of: B1
- method summary: STK11 functional score (HeLa growth suppression), rescaled enrichment; synonymous median = 1, nonsense median = 0 (normalised score)
- measurement setup: with HeLa; variant type: missense
Mark each entry MET if its STK11 functional score sits below 1, and NOT MET for all others.

Observe how each entry below is paired with its result.
| variant identifier | class |
| --- | --- |
| E293N | NOT MET |
| E376S | NOT MET |
| K287W | MET |
| K287T | NOT MET |
| E407G | MET |
| D284I | NOT MET |

Query :: is_below(STK11 functional score, 1) for S59L ?
Result :: NOT MET

Query :: is_below(STK11 functional score, 1) for L55A ?
Result :: MET

Query :: is_below(STK11 functional score, 1) for R331A ?
Result :: MET

Query :: is_below(STK11 functional score, 1) for L54D ?
Result :: NOT MET

Query :: is_below(STK11 functional score, 1) for D348W ?
Result :: NOT MET

Query :: is_below(STK11 functional score, 1) for E342P ?
Result :: NOT MET

Query :: is_below(STK11 functional score, 1) for M392V ?
Result :: NOT MET
